B1: Osa-1-4 twister ribozyme (parent)
chain: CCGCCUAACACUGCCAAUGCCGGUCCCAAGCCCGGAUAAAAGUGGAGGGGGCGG

- Variants of: B1
- protocol_summary: self-cleavage, relative activity (ratio to wild type); higher = more cleavage; co-transcriptional
measured_property: self-cleavage
Respond numerically, and do not add a unit to the figure.

### Prompt Could you tell me which self-cleavage is on file for CCGCCUAACACUGCCAAUGCCAGUCCCAAGCCCGGAUAAAAGUGGAGGGGGUGG [C52U G22A] ?
### Response 0.91

### Prompt What value of self-cleavage has been reported for the following variant? CCGCCUAAGACUGCCAAUGCCGGUCCCAAGCCCGGAUAAAAGUGGAAGGGGCGG [C9G G47A]
### Response 0.09

### Prompt I'd like to know its self-cleavage. The variant in question is CCGCCUAACACUGCCAAUCCCGGUCCCAAGCCCGGAUAAAAGUGGAGGGGGCUG [G19C G53U]
### Response 0.05

Values from the RNAGym collection of RNA variant scans (doi:10.1002/anie.201605470)
